TGT: recombinant human ACC2 (Homo sapiens, UniProt O00763)
Construct: a full length Cytomax clone of ACC2 was purchased from Cambridge Bioscience Limited; made in house; host or cells: CHO cells (tetracycline induction, pcDNA5 FRT TO-TOPO); purified on a Softlink Soft Release Avidin column
Sequence (O00763 whole entry): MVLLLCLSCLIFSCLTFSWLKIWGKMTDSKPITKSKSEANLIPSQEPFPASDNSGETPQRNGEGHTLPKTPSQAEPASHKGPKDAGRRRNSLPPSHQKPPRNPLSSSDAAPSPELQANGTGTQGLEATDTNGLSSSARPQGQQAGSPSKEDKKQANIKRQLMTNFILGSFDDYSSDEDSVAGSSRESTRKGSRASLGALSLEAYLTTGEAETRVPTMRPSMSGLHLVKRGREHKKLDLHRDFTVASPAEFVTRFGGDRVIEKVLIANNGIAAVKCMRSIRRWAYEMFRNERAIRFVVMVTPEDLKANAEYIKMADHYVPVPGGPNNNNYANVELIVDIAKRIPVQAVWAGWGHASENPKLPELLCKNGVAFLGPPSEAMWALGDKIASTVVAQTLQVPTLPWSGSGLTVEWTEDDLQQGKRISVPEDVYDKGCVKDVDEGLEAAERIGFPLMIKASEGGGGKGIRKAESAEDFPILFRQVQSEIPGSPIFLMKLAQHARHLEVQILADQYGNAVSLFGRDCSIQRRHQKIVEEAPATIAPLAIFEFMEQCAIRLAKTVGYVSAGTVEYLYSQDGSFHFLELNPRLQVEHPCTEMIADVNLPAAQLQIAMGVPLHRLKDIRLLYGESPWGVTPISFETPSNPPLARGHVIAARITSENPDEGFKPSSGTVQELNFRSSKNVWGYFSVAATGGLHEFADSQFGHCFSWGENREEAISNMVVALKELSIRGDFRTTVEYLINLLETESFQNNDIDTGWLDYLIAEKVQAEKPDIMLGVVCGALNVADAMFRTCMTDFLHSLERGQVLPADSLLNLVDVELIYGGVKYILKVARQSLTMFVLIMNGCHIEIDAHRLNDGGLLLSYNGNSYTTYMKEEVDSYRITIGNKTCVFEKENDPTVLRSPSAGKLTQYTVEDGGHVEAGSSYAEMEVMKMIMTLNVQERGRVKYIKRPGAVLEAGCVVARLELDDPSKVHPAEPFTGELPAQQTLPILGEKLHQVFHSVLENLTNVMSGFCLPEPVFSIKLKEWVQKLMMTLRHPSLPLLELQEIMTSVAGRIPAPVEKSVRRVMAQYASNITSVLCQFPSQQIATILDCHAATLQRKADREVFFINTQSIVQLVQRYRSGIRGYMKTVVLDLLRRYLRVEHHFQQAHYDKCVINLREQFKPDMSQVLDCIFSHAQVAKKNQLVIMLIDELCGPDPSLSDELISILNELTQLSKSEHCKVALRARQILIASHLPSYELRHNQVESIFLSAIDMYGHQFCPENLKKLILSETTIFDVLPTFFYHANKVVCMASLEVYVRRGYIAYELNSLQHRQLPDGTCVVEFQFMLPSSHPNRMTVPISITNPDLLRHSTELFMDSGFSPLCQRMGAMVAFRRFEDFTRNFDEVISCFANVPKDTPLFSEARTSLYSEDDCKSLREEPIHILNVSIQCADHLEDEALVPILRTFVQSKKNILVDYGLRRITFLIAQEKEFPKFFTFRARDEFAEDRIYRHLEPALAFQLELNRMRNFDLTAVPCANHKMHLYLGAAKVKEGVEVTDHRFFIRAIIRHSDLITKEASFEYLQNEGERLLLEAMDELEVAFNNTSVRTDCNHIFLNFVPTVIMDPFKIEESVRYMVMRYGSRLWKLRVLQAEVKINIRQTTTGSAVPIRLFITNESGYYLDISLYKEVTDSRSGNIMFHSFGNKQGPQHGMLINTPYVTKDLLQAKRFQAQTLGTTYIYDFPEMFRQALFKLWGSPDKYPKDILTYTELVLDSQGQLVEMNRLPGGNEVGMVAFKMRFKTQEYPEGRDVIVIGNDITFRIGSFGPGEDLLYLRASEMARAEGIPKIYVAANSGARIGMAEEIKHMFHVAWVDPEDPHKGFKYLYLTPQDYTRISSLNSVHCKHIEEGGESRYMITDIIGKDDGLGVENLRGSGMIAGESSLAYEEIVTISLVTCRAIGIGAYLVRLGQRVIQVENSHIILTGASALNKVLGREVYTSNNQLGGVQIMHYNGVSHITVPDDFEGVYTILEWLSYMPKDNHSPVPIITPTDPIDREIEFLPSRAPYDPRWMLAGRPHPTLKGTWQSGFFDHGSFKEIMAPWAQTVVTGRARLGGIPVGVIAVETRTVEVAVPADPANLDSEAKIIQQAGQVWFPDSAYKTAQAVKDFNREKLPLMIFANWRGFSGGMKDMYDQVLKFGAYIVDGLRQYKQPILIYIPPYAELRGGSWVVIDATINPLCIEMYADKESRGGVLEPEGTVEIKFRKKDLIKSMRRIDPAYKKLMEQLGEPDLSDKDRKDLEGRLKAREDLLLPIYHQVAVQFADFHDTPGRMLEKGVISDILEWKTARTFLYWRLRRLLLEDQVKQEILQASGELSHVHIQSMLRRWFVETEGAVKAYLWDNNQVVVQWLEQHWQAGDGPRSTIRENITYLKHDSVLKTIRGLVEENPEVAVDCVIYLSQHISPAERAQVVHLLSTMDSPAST
TEST: Measurement of human ACC2 inhibition (recombinant hACC2 Transcreener ADP detection FP assay)
Type: biochemical
CONDITION DESCRIPTION: recombinant hACC2 transcreener assay; read-out: rhACC2 IC50
Let's look at some molecules and their measured IC50.

| MOLECULE | IC50 |
| --- | --- |
| CCc1n[nH]c2c(OC)cc(C(=O)N3CCC4(CC3)CC(=O)c3nn(C5CCC5)cc3O4)cc12 | 5 nM |
| CCOc1cc(C(=O)N2CCC3(CC2)CC(=O)c2nn(CC)c(C)c2O3)cc2c(C)n[nH]c12 | 27 nM |
| Cc1n[nH]c2c(C)cc(C(=O)N3CCC4(CC3)CC(=O)c3nn(C5CCOC5)c(C)c3O4)cc12 (centres unmarked) | 20 nM |
| CCc1n[nH]c2c(C)cc(C(=O)N3CCC4(CC3)CC(=O)c3nn(C(C)(C)C)cc3O4)cc12 | 3 nM |
| CCn1nc2c(c1C)OC1(CCN(C(=O)c3ccc4ncsc4c3)CC1)CC2=O | 285 nM |
| Cc1cc(C(=O)N2CCC3(CC2)CC(=O)c2nn(C4CC4)cc2O3)cc2cn[nH]c12 | 19 nM |
| CC(C)(C)n1cc2c(n1)C(=O)CC1(CCN(C(=O)c3ccc4[nH]nc(Cl)c4c3)CC1)O2 | 5 nM |
| CC(C)(C)n1cc2c(n1)C(=O)CC1(CCN(C(=O)c3ccc4c(c3)NC(=O)CC4)CC1)O2 | 14 nM |

###

TGT: recombinant human ACC2 (Homo sapiens)
Construct: a full length Cytomax clone of ACC2 was purchased from Cambridge Bioscience Limited; made in house; host or cells: CHO cells (tetracycline induction, pcDNA5 FRT TO-TOPO); purified on a Softlink Soft Release Avidin column
TEST: Measurement of human ACC2 inhibition (recombinant hACC2 Transcreener ADP detection FP assay)
Assay type: biochemical
CONDITION DESCRIPTION: recombinant hACC2 transcreener assay; read-out: rhACC2 IC50
pIC50: −log10 of the molar value.

| MOLECULE | pIC50 |
| --- | --- |
| CC(C)n1cc2c(n1)C(=O)CC1(CCN(C(=O)c3ccc4cnsc4c3)CC1)O2 [24.002] | 6.70 |
| CCn1nc2c(c1C)OC1(CCN(C(=O)c3ccc4snc(N)c4c3)CC1)CC2=O [7.003] | 7.72 |
| Cc1cc(C(=O)N2CCC3(CC2)CC(=O)c2nn(C(C)(C)C)cc2O3)cc2cn[nH]c12 [1.042] | 8.40 |
| Cc1n[nH]c2ccc(C(=O)N3CCC4(CC3)CC(=O)c3nn(C5CCCCC5)cc3O4)cc12 [1.087] | 6.87 |
| CCc1cc(C(=O)N2CCC3(CC2)CC(=O)c2nn(CC)c(C)c2O3)cc2cn[nH]c12 [1.056] | 7.46 |
| CCC(C)n1cc2c(n1)C(=O)CC1(CCN(C(=O)c3ccc4[nH]ncc4c3)CC1)O2 (stereo not drawn) [1.142] | 7.70 |
| CCn1nc2c(c1C)OC1(CCN(C(=O)c3ccc4c(C)n[nH]c4c3)CC1)CC2=O [2.025] | 7.36 |
| Cc1n[nH]c2c(C)cc(C(=O)N3CCC4(CC3)CC(=O)c3nn(C5CC5)c(C)c3O4)cc12 [1.014] | 8.05 |
| CCc1n[nH]c2ccc(C(=O)N3CCC4(CC3)CC(=O)c3nn(C)cc3O4)cc12 [1.095] | 6.40 |
| COc1cc(C(=O)N2CCC3(CC2)CC(=O)c2nn(CC(C)C)c(C)c2O3)cc2c(C)n[nH]c12 [1.132] | 7.89 |
| Cc1n[nH]c2ccc(C(=O)N3CCC4(CC3)CC(=O)c3nn(C(C)C)c(C)c3O4)cc12 [1.091] | 7.82 |
| CC(C)n1cc2c(n1)C(=O)CC1(CCN(C(=O)c3ccc4[nH]ncc4c3)CC1)O2 [1.067] | 7.30 |
| Cc1cc(C(=O)N2CCC3(CC2)CC(=O)c2nn(C(C)(C)C)c(C)c2O3)cc2cn[nH]c12 [1.043] | 7.37 |
| CCc1c2c(nn1C)C(=O)CC1(CCN(C(=O)c3cc(C)c4[nH]ncc4c3)CC1)O2 [1.035] | 6.44 |
| CCOc1cc(C(=O)N2CCC3(CC2)CC(=O)c2nn(C(C)(C)C)cc2O3)cc2c(C)n[nH]c12 [1.116] | 8.30 |
| CCn1nc2c(c1C)OC1(CCN(C(=O)c3ccc4c(c3)nc(C)n4C)CC1)CC2=O [8.006] | 6.58 |
| Cc1nc2c(F)cc(C(=O)N3CCC4(CC3)CC(=O)c3nn(C(C)C)cc3O4)cc2[nH]1 [3.024] | 7.15 |
| Cc1cc(C(=O)N2CCC3(CC2)CC(=O)c2nn(C4CCC4)cc2O3)cc2c(Cl)n[nH]c12 [1.106] | 8.10 |
| Cc1c2c(nn1C(C)(C)C)C(=O)CC1(CCN(C(=O)c3ccc4[nH]ncc4c3)CC1)O2 [1.072] | 7.21 |
| Cc1nc2ccc(C(=O)N3CCC4(CC3)CC(=O)c3nn(C(C)C)cc3O4)cc2[nH]1 [3.012] | 6.89 |
| Cc1cc(C(=O)N2CCC3(CC2)CC(=O)c2nn(CC(C)C)c(C)c2O3)cc2cn[nH]c12 [1.130] | 7.89 |
| CCc1n[nH]c2c(C)cc(C(=O)N3CCC4(CC3)CC(=O)c3nn(CC)c(C)c3O4)cc12 [1.125] | 8.15 |
| Cc1c2c(nn1C)C(=O)CC1(CCN(C(=O)c3cc(Cl)c4[nH]ncc4c3)CC1)O2 [1.063] | 6.86 |
| Cc1cc(C(=O)N2CCC3(CC2)CC(=O)c2nn(C(C)C)cc2O3)cc2c(Cl)n[nH]c12 [1.104] | 8.40 |
| Cc1n[nH]c2ccc(C(=O)N3CCC4(CC3)CC(=O)c3nn(C5CCCC5)cc3O4)cc12 [1.088] | 7.80 |
| CCc1c2c(nn1C)C(=O)CC1(CCN(C(=O)c3cc(C)c4[nH]nc(C)c4c3)CC1)O2 [1.007] | 6.72 |
| CCn1nc2c(c1C)OC1(CCN(C(=O)c3ccc4c(c3)CCC(=O)N4)CC1)CC2=O [13.001] | 6.38 |
| CCn1nc2c(c1C)OC1(CCN(C(=O)c3ccc4ccccc4c3)CC1)CC2=O [6.007] | 7.40 |
| CCn1nc2c(c1C)OC1(CCN(C(=O)c3cc(F)c4nc[nH]c4c3)CC1)CC2=O [3.020] | 6.86 |
| COc1cc(-n2nc3c(c2C)OC2(CCN(C(=O)c4cc(C)c5[nH]ncc5c4)CC2)CC3=O)ccc1C#N [1.028] | 6.90 |
| Cn1cc2c(n1)C(=O)CC1(CCN(C(=O)c3ccc4[nH]ncc4c3)CC1)O2 [1.071] | 6.11 |
| Cc1cc(C(=O)N2CCC3(CC2)CC(=O)c2nn(C4CCCC4)cc2O3)cc2c(Cl)n[nH]c12 [1.107] | 8.52 |
| CCc1n[nH]c2c(OC)cc(C(=O)N3CCC4(CC3)CC(=O)c3nn(C5CCCCC5)cc3O4)cc12 [1.048] | 7.74 |
